Biological target: UniProt P0DTD1
Assay: biochemical
Assay type: biochemical
Design: unit not given here
Conditions: sheet LOPAC_screen_w_protease; primary screen of LOPAC1280 at 5 µM with protease; replicate 2
measurementName: Replicate_2
Lab note: record the figure alone, no unit after it.

Below are worked cases with known answers.
compound	Replicate_2
O=C([O-])c1cc2cc(Cc3cccnc3)ccc2o1.[Na+] [Furegrelate sodium]	2.907
Cl.FC(F)(F)c1cc(CO[C@H]2CCCN[C@H]2c2ccccc2)cc(C(F)(F)F)c1 [L-733,060 hydrochloride]	4.136
COC(=O)c1cc2c(cn1)[nH]c1ccccc12 [Methyl beta-carboline-3-carboxylate]	1.662

Next, consider the following compound.
Look up Replicate_2: O=C(O)CN(CCN(CC(=O)O)CC(=O)O)CCN(CC(=O)O)CC(=O)O
1.048
